# Lookup of reported solubility keyed by entry
assay-protocol: physchem
measurement-conditions: pH 6.8, Solubility Conc.
Positions of bridges follow the written chain, without caps; N, C: chain ends. Non-standard residues stand in square brackets, D forms with d. Residues, ends and D or L forms follow the SMILES beside them. Groups on a side chain read outwards from the residue. *: point of attachment. Lys(CH2CO2H)2 = N[C@@H](CCCCN(CC(=O)O)CC(=O)O)C(=O)O; C18 diacid = O=C(O)CCCCCCCCCCCCCCCCC(=O)*; C17 diacid = O=C(O)CCCCCCCCCCCCCCCC(=O)*; C16 diacid = O=C(O)CCCCCCCCCCCCCCC(=O)*; hCys = N[C@@H](CCS)C(=O)O; Orn = NCCC[C@H](N)C(=O)O; AEEA = NCCOCCOCC(=O)O

# molecule, solubility / µM
rows = [
    ("CC(=O)N[C@H]1CCC(=O)NCCC[C@@H](C(=O)N2CCC[C@H]2C(=O)N2CCC[C@H]2C(=O)N[C@@H](CC(=O)O)C(=O)N[C@@H](CCCCN(CC(=O)O)CC(=O)O)C(=O)N[C@@H](CCCCNC(=O)COCCOCCNC(=O)CCCCCCCCCCCCCCC(=O)O)C(N)=O)NC(=O)[C@H](Cc2c[nH]c3ccccc23)NC(=O)[C@H](CCCNC(=N)N)NC(=O)[C@@H](Cc2ccccc2)NC(=O)[C@H](Cc2c[nH]cn2)NC1=O [Example 13] (Ac-EH[dF]RW[Orn]PPD[Lys(CH2CO2H)2]K([AEEA-C16 diacid])-NH2; lactam 1-6)", 459),
    ("CC(=O)N[C@H]1CCC(=O)NCCC[C@@H](C(=O)N2CCC[C@H]2C(=O)N2CCC[C@H]2C(=O)N[C@@H](CC(=O)O)C(=O)N[C@@H](CCCCN(CC(=O)O)CC(=O)O)C(=O)N[C@@H](CCCCNC(=O)COCCOCCNC(=O)CCCCCCCCCCCCCCCCC(=O)O)C(N)=O)NC(=O)[C@H](Cc2c[nH]c3ccccc23)NC(=O)[C@H](CCCNC(=N)N)NC(=O)[C@@H](Cc2ccccc2)NC(=O)[C@H](Cc2c[nH]cn2)NC1=O [Example 26] (Ac-EH[dF]RW[Orn]PPD[Lys(CH2CO2H)2]K([AEEA-C18 diacid])-NH2; lactam 1-6)", 461),
    ("CC(=O)N[C@H]1CCSSC[C@@H](C(=O)N[C@@H](CO)C(=O)N2CCC[C@H]2C(=O)N[C@@H](CCCCN)C(=O)N[C@@H](CCC(=O)O)C(=O)N[C@@H](CCCCN(CC(=O)O)CC(=O)O)C(=O)N[C@@H](CCCCNC(=O)COCCOCCNC(=O)CCCCCCCCCCCCCCC(=O)O)C(N)=O)NC(=O)[C@H](Cc2c[nH]c3ccccc23)NC(=O)[C@H](CCCNC(=N)N)NC(=O)[C@@H](Cc2ccccc2)NC(=O)[C@H](Cc2c[nH]cn2)NC1=O [Example 60] (Ac-[hCys]H[dF]RWCSPKE[Lys(CH2CO2H)2]K([AEEA-C16 diacid])-NH2; disulfide 1-6)", 457),
    ("CC(=O)N[C@H]1CCCCNC(=O)C[C@@H](C(=O)N2CCC[C@H]2C(=O)N[C@@H](CO)C(=O)N[C@@H](Cc2c[nH]cn2)C(=O)N[C@@H](CCC(=O)O)C(=O)N[C@@H](CCCCN(CC(=O)O)CC(=O)O)C(=O)N[C@@H](CCCCNC(=O)COCCOCCNC(=O)CCCCCCCCCCCCCCCC(=O)O)C(N)=O)NC(=O)[C@H](Cc2c[nH]c3ccccc23)NC(=O)[C@H](CCCNC(=N)N)NC(=O)[C@@H](Cc2ccccc2)NC(=O)[C@H](Cc2c[nH]cn2)NC1=O [Example 49] (Ac-KH[dF]RWDPSHE[Lys(CH2CO2H)2]K([AEEA-C17 diacid])-NH2; lactam 1-6)", 427),
    ("CC(=O)N[C@H]1CCCCNC(=O)C[C@@H](C(=O)N2CCC[C@H]2C(=O)N2CCC[C@H]2C(=O)N[C@@H](Cc2c[nH]cn2)C(=O)N[C@@H](CCC(=O)O)C(=O)N[C@@H](CCCCN(CC(=O)O)CC(=O)O)C(=O)N[C@@H](CCCCNC(=O)COCCOCCNC(=O)CCCCCCCCCCCCCCCC(=O)O)C(N)=O)NC(=O)[C@H](Cc2c[nH]c3ccccc23)NC(=O)[C@H](CCCNC(=N)N)NC(=O)[C@@H](Cc2ccccc2)NC(=O)[C@H](Cc2c[nH]cn2)NC1=O [Example 44] (Ac-KH[dF]RWDPPHE[Lys(CH2CO2H)2]K([AEEA-C17 diacid])-NH2; lactam 1-6)", 407),
]

The measured values listed here are drawn from patent US20130012432A1.
